- measured.target: Heat shock factor protein 1 (Mus musculus, UniProt P38532)
- Sequence (P38532 whole entry): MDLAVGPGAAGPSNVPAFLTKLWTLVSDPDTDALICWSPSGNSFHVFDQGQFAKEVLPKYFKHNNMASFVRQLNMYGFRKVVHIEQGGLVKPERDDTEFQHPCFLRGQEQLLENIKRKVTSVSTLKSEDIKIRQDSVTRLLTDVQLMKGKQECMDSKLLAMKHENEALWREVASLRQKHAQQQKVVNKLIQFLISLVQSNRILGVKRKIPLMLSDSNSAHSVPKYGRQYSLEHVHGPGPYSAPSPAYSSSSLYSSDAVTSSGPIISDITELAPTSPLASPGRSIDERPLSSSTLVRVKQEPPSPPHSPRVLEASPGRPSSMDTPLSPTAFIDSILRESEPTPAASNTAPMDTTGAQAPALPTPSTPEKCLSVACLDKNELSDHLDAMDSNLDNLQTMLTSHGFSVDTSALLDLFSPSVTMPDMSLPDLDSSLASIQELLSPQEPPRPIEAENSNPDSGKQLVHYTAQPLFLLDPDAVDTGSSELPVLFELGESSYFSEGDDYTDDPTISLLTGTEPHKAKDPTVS
- protocol.text: enhancement of HSF1-driven luciferase signal – cell-based, NIH3T3, luminescence, dose retest, confirmation (AID 435004);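 further: stress induced by proteasome inhibitor MG132 added 30 min after compound; luciferase reporter driven by HSF1 response element in NIH3T3 cells; actives raise luminescence as potentiators of the MG132 stress response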
- Assay type: functional
Calls of active or inactive are those of the source.
Response enum: active, inactive

A selection of reference data follows.
COc1ccccc1/C=C1/SC(=S)N(C(C)C(=O)NC2C=CS(=O)(=O)C2)C1=O (centres undefined) = active
CSc1sc(C(=O)Nc2ccc(F)cc2F)c2c1C=CCC2 = inactive
Cc1ccc(-n2cc(CNCCN3CCOC3=O)c(-c3cccc(C)c3)n2)cc1 = inactive
COc1ccc(CCNC(=O)Nc2cccc([N+](=O)[O-])c2)cc1OC = inactive
COc1cc2c(cc1OC)CN(c1ccc([N+](=O)[O-])c(C(F)(F)F)c1)CC2 = active
CC(C)OC(=O)c1c(NC(=O)Cn2cnc([N+](=O)[O-])n2)sc2c1CCCC2 = inactive

Task: Just curious, what result did O=c1c2ccccc2nc(SCc2nnc(-c3ccccc3Br)o2)n1Cc1ccco1 get here?
Output: inactive

Task: # outcome recorded in this test, key = Cc1ccc(O)c(NC(=O)CSc2n[nH]c(-c3ccccc3)n2)c1
Output: active

Task: For CC1CN(C(=S)NC(=O)C2CCCCC2)CC(C)O1 (centres undefined) , what call appears in the results of this test?
Output: inactive

----------
- measured.target: UniProt:Q9GZR1
- Sequence (Q9GZR1 whole entry): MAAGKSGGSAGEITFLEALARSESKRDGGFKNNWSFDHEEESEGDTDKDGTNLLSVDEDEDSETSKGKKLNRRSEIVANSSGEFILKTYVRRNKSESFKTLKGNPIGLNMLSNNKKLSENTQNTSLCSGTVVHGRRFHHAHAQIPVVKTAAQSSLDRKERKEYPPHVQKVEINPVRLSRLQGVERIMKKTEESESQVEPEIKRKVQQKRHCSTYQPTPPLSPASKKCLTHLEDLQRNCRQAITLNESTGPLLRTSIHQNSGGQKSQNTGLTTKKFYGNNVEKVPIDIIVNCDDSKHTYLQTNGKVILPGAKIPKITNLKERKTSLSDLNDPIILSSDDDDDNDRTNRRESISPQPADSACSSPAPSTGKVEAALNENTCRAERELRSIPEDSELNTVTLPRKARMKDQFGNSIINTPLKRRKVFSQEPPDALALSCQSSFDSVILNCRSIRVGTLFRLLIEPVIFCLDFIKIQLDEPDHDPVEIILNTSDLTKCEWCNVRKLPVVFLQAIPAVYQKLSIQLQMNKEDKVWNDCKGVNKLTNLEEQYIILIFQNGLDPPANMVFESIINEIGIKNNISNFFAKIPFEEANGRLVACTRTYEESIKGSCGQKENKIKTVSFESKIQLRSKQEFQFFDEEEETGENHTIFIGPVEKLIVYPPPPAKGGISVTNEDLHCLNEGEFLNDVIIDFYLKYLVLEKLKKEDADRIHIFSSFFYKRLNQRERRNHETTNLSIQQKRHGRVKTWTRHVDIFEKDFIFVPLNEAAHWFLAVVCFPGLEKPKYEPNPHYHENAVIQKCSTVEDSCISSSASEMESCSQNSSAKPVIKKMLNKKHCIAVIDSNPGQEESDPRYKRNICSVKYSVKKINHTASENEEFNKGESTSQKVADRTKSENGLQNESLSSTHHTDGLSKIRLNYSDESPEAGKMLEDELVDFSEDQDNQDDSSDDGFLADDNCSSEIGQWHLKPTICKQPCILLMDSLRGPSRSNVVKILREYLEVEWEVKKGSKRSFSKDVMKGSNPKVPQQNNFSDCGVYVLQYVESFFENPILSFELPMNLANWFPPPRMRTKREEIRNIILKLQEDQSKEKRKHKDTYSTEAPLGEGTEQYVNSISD
- Format: functional
The source made the active and inactive calls.
measure.name: IC50

These solved cases illustrate the format of a correct answer.
O=C(N/N=C/c1c(O)ccc2ccccc12)c1[nH]ncc1Br = > 100 µM (inactive)
CCOc1ccc2nc(NC(=O)Nc3cccs3)sc2c1 = 19.2 µM (active)
Nc1nnc2c(n1)CCCC2 = 7.37 µM (active)

Task: Please report the recorded IC50 for O=C(Nc1cccc(F)c1)Nc1ccc2c(c1)CCC2 .
Output: > 100 µM (inactive)

----------
- measured.target: Peroxisome proliferator-activated receptor gamma/Nuclear receptor coactivator 2 (Homo sapiens, UniProt P37231)
- Sequence (P37231 whole entry): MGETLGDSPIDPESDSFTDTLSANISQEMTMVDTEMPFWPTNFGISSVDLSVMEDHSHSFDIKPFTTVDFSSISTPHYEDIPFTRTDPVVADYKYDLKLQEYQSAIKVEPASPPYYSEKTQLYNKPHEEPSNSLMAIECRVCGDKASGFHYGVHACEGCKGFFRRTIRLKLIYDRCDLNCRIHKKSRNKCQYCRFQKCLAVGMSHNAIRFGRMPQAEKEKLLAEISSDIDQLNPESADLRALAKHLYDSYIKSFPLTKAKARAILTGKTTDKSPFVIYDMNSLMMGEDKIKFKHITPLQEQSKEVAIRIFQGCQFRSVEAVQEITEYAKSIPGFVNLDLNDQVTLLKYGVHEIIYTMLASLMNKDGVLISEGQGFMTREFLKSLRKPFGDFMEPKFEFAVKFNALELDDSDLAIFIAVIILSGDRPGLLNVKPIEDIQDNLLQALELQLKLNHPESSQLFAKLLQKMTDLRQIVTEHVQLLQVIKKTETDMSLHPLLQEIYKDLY
- Sequence (Q15596 whole entry, further chain): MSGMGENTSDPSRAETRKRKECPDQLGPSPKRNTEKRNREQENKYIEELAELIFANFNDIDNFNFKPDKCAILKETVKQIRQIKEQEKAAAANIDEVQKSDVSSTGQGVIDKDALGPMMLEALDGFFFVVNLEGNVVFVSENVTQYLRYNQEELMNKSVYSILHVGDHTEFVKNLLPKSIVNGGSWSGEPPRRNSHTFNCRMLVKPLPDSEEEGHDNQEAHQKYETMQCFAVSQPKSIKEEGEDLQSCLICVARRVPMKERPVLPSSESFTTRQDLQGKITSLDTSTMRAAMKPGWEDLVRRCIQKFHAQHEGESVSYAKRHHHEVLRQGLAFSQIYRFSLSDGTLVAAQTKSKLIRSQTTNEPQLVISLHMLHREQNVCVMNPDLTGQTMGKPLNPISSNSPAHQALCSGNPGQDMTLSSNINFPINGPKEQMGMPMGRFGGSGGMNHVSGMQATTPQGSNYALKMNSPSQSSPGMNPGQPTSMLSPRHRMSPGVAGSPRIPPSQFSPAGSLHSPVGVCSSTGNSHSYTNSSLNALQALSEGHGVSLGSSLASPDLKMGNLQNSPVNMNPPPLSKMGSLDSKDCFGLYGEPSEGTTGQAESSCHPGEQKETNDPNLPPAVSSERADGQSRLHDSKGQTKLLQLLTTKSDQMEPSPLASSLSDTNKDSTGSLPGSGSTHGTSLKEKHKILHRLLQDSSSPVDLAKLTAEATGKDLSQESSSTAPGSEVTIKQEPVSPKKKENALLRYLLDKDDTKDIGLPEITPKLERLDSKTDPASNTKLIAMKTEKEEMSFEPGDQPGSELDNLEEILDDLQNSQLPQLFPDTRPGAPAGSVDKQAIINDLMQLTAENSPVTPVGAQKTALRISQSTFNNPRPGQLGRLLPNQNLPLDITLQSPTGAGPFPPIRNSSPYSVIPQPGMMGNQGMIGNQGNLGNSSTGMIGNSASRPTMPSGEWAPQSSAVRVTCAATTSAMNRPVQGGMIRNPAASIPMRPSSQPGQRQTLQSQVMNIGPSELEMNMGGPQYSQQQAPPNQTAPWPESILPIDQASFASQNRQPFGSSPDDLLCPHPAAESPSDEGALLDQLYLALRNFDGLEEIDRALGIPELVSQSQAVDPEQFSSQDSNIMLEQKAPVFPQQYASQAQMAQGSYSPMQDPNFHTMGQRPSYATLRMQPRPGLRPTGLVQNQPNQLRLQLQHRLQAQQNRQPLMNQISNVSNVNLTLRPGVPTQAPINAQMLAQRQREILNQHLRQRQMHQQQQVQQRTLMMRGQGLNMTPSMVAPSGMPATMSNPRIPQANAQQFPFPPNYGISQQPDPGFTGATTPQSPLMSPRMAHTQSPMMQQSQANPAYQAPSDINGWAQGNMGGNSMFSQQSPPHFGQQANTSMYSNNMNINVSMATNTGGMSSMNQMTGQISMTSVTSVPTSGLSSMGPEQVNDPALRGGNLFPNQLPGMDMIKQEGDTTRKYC
- protocol.text: TR-FRET dose response biochemical High Throughput Screening assay for agonists of the steroid receptor coactivator 2 (SRC-2) recruitment by the peroxisome proliferator-activated receptor gamma (PPAR gamma): non-selective agonists. [Related pubchem assays: 1297, 1032 ]
- Type: functional
Active and inactive are the calls of the source.
measure.name: EC50

Some molecules with known EC50 results, for comparison:
CCn1c2c(c3cc(Br)ccc31)CCC/C2=N\O = 25.7 µM (not active)
Cn1c(=S)[nH]c2c(c1=O)C(C)(C)Cc1ccccc1-2 = > 79.4 µM (not active)
Cc1c(Cl)c(-c2nnc(S)n2-c2ccc(F)cc2)nn1C = > 79.4 µM (not active)

Query molecule follows.
Task: Requested field: EC50. Item: Cc1cc2cc(CNS(=O)(=O)c3ccc4ccccc4c3)ccc2n1C
Output: 6.29 µM (active)

----------
Recorded EC50 for the following compounds
- measured.target: Short transient receptor potential channel 4 (Mus musculus, UniProt Q9QUQ5)
- Sequence (Q9QUQ5 whole entry): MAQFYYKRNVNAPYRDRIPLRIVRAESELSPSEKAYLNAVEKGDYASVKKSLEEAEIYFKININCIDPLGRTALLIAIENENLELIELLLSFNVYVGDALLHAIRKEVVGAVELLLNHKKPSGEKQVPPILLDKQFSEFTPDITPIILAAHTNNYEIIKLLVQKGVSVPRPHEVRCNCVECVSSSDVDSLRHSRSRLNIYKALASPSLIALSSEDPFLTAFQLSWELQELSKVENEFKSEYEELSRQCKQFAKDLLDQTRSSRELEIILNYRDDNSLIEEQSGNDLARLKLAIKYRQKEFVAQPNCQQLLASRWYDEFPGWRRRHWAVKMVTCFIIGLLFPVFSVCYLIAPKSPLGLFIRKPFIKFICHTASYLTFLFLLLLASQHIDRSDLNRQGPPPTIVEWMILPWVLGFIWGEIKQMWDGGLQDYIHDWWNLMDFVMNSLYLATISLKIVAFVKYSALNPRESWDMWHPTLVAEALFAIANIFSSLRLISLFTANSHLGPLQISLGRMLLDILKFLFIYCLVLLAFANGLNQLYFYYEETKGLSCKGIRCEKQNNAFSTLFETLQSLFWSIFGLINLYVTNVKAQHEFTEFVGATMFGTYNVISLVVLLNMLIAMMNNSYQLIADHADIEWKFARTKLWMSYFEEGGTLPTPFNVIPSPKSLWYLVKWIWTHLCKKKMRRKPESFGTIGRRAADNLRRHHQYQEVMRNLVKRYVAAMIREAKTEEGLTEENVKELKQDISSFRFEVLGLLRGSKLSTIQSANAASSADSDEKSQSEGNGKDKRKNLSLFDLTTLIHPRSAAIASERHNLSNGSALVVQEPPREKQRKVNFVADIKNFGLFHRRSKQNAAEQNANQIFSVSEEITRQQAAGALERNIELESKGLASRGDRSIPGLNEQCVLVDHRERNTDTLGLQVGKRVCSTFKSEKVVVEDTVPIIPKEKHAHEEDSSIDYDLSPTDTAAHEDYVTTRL
- protocol.text: calcium entry via TRPC4 opening agents – cell-based, HEK293 TRPC4/mu-opioid, Fluo-4 calcium, dose response (AID 434937)
- Assay type: functional
Calls of active or inactive are those of the source.

CNC[C@H](Cc1ccccc1)NC[C@@H](Cc1cccc2ccccc12)NCCc1ccc(C)cc1 = 9440 nM (active)
CCOC(=O)C1(CC2CCCCO2)CCN(Cc2cc(F)ccc2-n2cccn2)CC1 (centres undefined) = 473 nM (active)
COc1ccc2c(c1O)C13CCN(C)C(C2)C1CCC(=O)C3 (centres undefined) = 168 nM (active)

--- query ---
Task: For the compound Cc1cccc(C(=O)NC(=S)NNC(=O)c2cccs2)c1 , what EC50 is on record?
Output: 2990 nM (active)

Values were extracted from ChEMBL document CHEMBL1201862.
